assay: amyloid nucleation score (Sup35N fusion, yeast selection) (log enrichment); library NNK3; higher = more nucleation; inactive = no reads after selection;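 note: zero at mode of non-aggregating sequences after 7 days selection at 30°C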

[
  {
    "Substance": "GDGNRWDRTGSCHLQGAYCR",
    "amyloid nucleation score": "inactive"
  },
  {
    "Substance": "RTLFYFLDDSQFVLV",
    "amyloid nucleation score": "inactive"
  },
  {
    "Substance": "KPNLRFLS",
    "amyloid nucleation score": "inactive"
  },
  {
    "Substance": "SHVSQMWSGYAGNKEEPTAW",
    "amyloid nucleation score": 0.928
  },
  {
    "Substance": "KMHWNAGDQLYVRSPTHSLR",
    "amyloid nucleation score": "inactive"
  },
  {
    "Substance": "IVERSGVSGIWYLSGDLAKV",
    "amyloid nucleation score": "inactive"
  },
  {
    "Substance": "EFKIALRRPINERAESLVTR",
    "amyloid nucleation score": "inactive"
  },
  {
    "Substance": "SMGLFDTQFVGELHVASRLF",
    "amyloid nucleation score": "inactive"
  },
  {
    "Substance": "VRRIIML",
    "amyloid nucleation score": "inactive"
  },
  {
    "Substance": "ETSVTAHHLGIGVLLRFQQ",
    "amyloid nucleation score": "inactive"
  },
  {
    "Substance": "CFYIKKSKVGLGHWINHV",
    "amyloid nucleation score": "inactive"
  },
  {
    "Substance": "AHGEMRAVKPINFKACWRCL",
    "amyloid nucleation score": "inactive"
  },
  {
    "Substance": "ILCLVAVLGASRGYVMAEWY",
    "amyloid nucleation score": "inactive"
  },
  {
    "Substance": "HYAASSLYLTATHGFICSMC",
    "amyloid nucleation score": 1.73
  },
  {
    "Substance": "QMYSLWCKKCMFYDGCEGVS",
    "amyloid nucleation score": "inactive"
  },
  {
    "Substance": "TDFTYSLTFVYKLGEKTVDI",
    "amyloid nucleation score": "inactive"
  },
  {
    "Substance": "DIPSVGQKRCSHGDRYNSAK",
    "amyloid nucleation score": "inactive"
  },
  {
    "Substance": "IYMFVHIK",
    "amyloid nucleation score": 1.68
  },
  {
    "Substance": "HITLRYLNL",
    "amyloid nucleation score": 0.692
  },
  {
    "Substance": "DVLWSGSYSSRLPGSIRDCE",
    "amyloid nucleation score": "inactive"
  },
  {
    "Substance": "VDSSGLV",
    "amyloid nucleation score": "inactive"
  },
  {
    "Substance": "RVLYPVKVYRNDKMADWNN",
    "amyloid nucleation score": "inactive"
  },
  {
    "Substance": "YSVCVNAWGLSTLSTLWCTY",
    "amyloid nucleation score": "inactive"
  },
  {
    "Substance": "VSNECVPWAPYGIGGF",
    "amyloid nucleation score": "inactive"
  },
  {
    "Substance": "NTDPTQVFQASN",
    "amyloid nucleation score": "inactive"
  },
  {
    "Substance": "QAFDFTHHPFHDRSWNGHWS",
    "amyloid nucleation score": "inactive"
  },
  {
    "Substance": "RSRGWDWFEVSIIVRCSMWD",
    "amyloid nucleation score": "inactive"
  },
  {
    "Substance": "TCMSVNVFRGYIIAW",
    "amyloid nucleation score": "inactive"
  },
  {
    "Substance": "VYDMCGNLQWAL",
    "amyloid nucleation score": "inactive"
  },
  {
    "Substance": "YYIIWRFQGIVLKYGTALTF",
    "amyloid nucleation score": "inactive"
  },
  {
    "Substance": "SIDHVLWYNIGRVGSCWSLR",
    "amyloid nucleation score": -0.188
  },
  {
    "Substance": "FSHHIDTFV",
    "amyloid nucleation score": "inactive"
  },
  {
    "Substance": "TFMPIGLNL",
    "amyloid nucleation score": "inactive"
  },
  {
    "Substance": "IHPVNLRVLSFGHIWCWYLR",
    "amyloid nucleation score": "inactive"
  },
  {
    "Substance": "RYYLFLVPSGVWGYVVLRDS",
    "amyloid nucleation score": 0.656
  },
  {
    "Substance": "HCSYCVVSE",
    "amyloid nucleation score": "inactive"
  },
  {
    "Substance": "NMIIVDFDNLLYNMNYHLAG",
    "amyloid nucleation score": 1.49
  },
  {
    "Substance": "LGAKILCNWRVVHDSSCQHL",
    "amyloid nucleation score": "inactive"
  },
  {
    "Substance": "FPGNLSLNGVIHMFLYDKLW",
    "amyloid nucleation score": "inactive"
  },
  {
    "Substance": "FKAMLD",
    "amyloid nucleation score": "inactive"
  },
  {
    "Substance": "SSKSSRLNMTVFSKTVMTIM",
    "amyloid nucleation score": "inactive"
  },
  {
    "Substance": "RGMWSFHGYWRTGKYMATGG",
    "amyloid nucleation score": "inactive"
  },
  {
    "Substance": "CLFSGEGLARKCYSDNS",
    "amyloid nucleation score": "inactive"
  },
  {
    "Substance": "FQKLEVNKLGIIWNHVLTRK",
    "amyloid nucleation score": "inactive"
  },
  {
    "Substance": "TLLLIVDNGVNPSLKEMMLL",
    "amyloid nucleation score": "inactive"
  },
  {
    "Substance": "HSEADDSLTGYFALVATRVF",
    "amyloid nucleation score": "inactive"
  },
  {
    "Substance": "DISSFGHFSMSFFNRIIKGA",
    "amyloid nucleation score": "inactive"
  },
  {
    "Substance": "MFLKMRWSNAVRMARKCNLE",
    "amyloid nucleation score": "inactive"
  },
  {
    "Substance": "LCSGVHHFVRNTIVKGVCDG",
    "amyloid nucleation score": "inactive"
  },
  {
    "Substance": "RDMYLLLREHGKGTIGKPWG",
    "amyloid nucleation score": "inactive"
  },
  {
    "Substance": "RTTVVYTLNLSGTNRRPCYN",
    "amyloid nucleation score": 1.66
  },
  {
    "Substance": "TKHETSLVCRLLTETRFKNI",
    "amyloid nucleation score": "inactive"
  },
  {
    "Substance": "VMNLEPRSHVWYVTVFSHAS",
    "amyloid nucleation score": 1.68
  },
  {
    "Substance": "GVMYQACWSLASTYFTVNSS",
    "amyloid nucleation score": "inactive"
  },
  {
    "Substance": "VVYDPVICDGWALDGGVGAR",
    "amyloid nucleation score": "inactive"
  },
  {
    "Substance": "GNKMVLVW",
    "amyloid nucleation score": "inactive"
  },
  {
    "Substance": "EVGYKTVFPVGIMNDIVMWM",
    "amyloid nucleation score": "inactive"
  },
  {
    "Substance": "VLRLFDTNPHDSREVAYFYF",
    "amyloid nucleation score": "inactive"
  },
  {
    "Substance": "NCIYLVLN",
    "amyloid nucleation score": "inactive"
  },
  {
    "Substance": "RKTSSY",
    "amyloid nucleation score": -0.725
  },
  {
    "Substance": "FRSVSLWSSN",
    "amyloid nucleation score": "inactive"
  },
  {
    "Substance": "IVDAIILWCSKILIWVGIGQ",
    "amyloid nucleation score": "inactive"
  },
  {
    "Substance": "SKFIRRT",
    "amyloid nucleation score": "inactive"
  },
  {
    "Substance": "IMSPTFGFQMLWPGPRHRLL",
    "amyloid nucleation score": "inactive"
  },
  {
    "Substance": "NIWRMYEIRSVSGKKLRVDI",
    "amyloid nucleation score": "inactive"
  },
  {
    "Substance": "SGLDRWDAEVVSILWVKLTV",
    "amyloid nucleation score": 1.44
  },
  {
    "Substance": "FRESFLSSYVEYMTLGPGSN",
    "amyloid nucleation score": -0.342
  },
  {
    "Substance": "WWMYSALGMYTDHEFACDVA",
    "amyloid nucleation score": "inactive"
  },
  {
    "Substance": "FIWTFK",
    "amyloid nucleation score": 1.35
  },
  {
    "Substance": "EHRLVDCDVWVR",
    "amyloid nucleation score": 2.82
  },
  {
    "Substance": "WVGGPQNQRPANWTFGMWFH",
    "amyloid nucleation score": "inactive"
  },
  {
    "Substance": "NLQERAL",
    "amyloid nucleation score": -0.438
  },
  {
    "Substance": "TVLFEIYMNEVMNGFLICST",
    "amyloid nucleation score": "inactive"
  }
]
